system: SK-MEL-5 melanoma; assay: NCI tumour cell line growth inhibition, 48 h
quantity: TGI

C=C1OC2OC(C)C(NC(=O)OCC(Cl)(Cl)Cl)C(OC(C)=O)C2O1 (centres undefined) ... > 100 µM
CC[C@H](C)[C@H](NC(=O)[C@H]1CCCCN1C)C(=O)N(C)[C@H](CCc1nc(C(=O)N[C@@H](Cc2ccccc2)C[C@H](C)C(=O)O)cs1)C(C)C ... 3.24 µM
CN1NC(c2ccc(Cl)cc2)=C(C#N)C(=O)CC1c1ccccc1 (centres undefined) ... > 100 µM
[O]=[Sn]([CH]1CCCCC1)[CH]1CCCCC1 ... 1.14 µM
CCOC(=O)Cc1c(C(=O)OCC)[n+](=O)c2cc(Cl)c(Cl)cc2n1[O-] ... 3.04 µM

I have 5 molecules here; please give me TGI for each one.
1. Nc1nc(Cl)c2ncn(CCCC(c3ccccc3)P(=O)(O)O)c2n1 (centres undefined)
2. CCCOC(=O)c1cc(O)c(O)c(O)c1
3. C=CCNC(=S)NNC(=O)c1c(C)nc2sccn12
4. CN(C(=O)Cc1ccccc1)n1cn[n+](CC(=O)OC(C)(C)C)c1
5. [Br][Pb]([c]1ccccc1)([c]1ccccc1)[c]1ccccc1

1: > 100 µM; 2: > 100 µM; 3: > 100 µM; 4: > 10 µM; 5: 0.312 µM

---

tested on: TK-10 renal; experiment: NCI tumour cell line growth inhibition, 48 h; in the data active = GI50 below about 0.43 µM; inactive = the rest
Entry note: the call must match one of active, inactive

Below, 3 compounds whose answers are already recorded.
Cc1ccc(NCCNCC(C)(C)O)c2c(=O)c3ccc(Cl)cc3sc12 ... inactive
CCc1ccc2c(c1)C(=O)c1c-2n(CCCN)c(=O)c2cc(OC)c(OC)cc12 ... inactive
COc1cc(N=Nc2cc(Cc3ccc(N(C)C)cc3)c(N)cc2N(C)C)c2ncccc2c1 ... inactive

Assay result, entry Cn1c(=O)c(-c2ccccc2Cl)cc2cnc(NC3CCOCC3)nc21 — outcome?
inactive

Similarly, CCN(CC)CCOC(COc1cc(C)cc(C)c1)COc1cc(C)cc(C)c1 ?
inactive

Next entry: [O]=[Sn]([CH]1CCCCC1)[CH]1CCCCC1
active

Also, CCCCNc1ncnc2c1cnn2-c1ccccc1 please.
inactive

Likewise for [Br][Pb]([c]1ccccc1)([c]1ccccc1)[c]1ccccc1 ?
active

Also check CNC(=O)CCN1CCN(CC/C=C2\c3ccccc3Sc3ccc(Cl)cc32)CC1
inactive

Next record, please: Cc1ccc(-c2nc(NCCOCCOCCN)nc(N3CCN(c4ccccn4)CC3)n2)cc1
inactive

Can you check COc1ccc2nc3ccccc3c(NCCNCCO)c2c1 next?
inactive

---

test system: LOX IMVI melanoma; experiment: NCI tumour cell line growth inhibition, 48 h; in the data active = GI50 below about 0.43 µM; inactive = the rest
Choose the fitting class; nothing outside true (active), false (inactive) is accepted.

Worked set:
O=c1c(I)c[nH]cc1I ... false
CCSC[C@@H]1C[C@](O)(c2ccccc2)[C@@H](c2ccccc2)O1 ... false
Nc1ccc(CC[C@H]2CCC/C=C/[C@@H]3C[C@H](O)C[C@H]3[C@H](O)/C=C/C(=O)O2)cc1 ... true
[CH3][Sn]([CH3])([CH3])[S]C(=S)N1CCOCC1 ... false
Nc1ncn([C@H]2CC(O)[C@@H](CO)S2)c(=O)n1 (stereo not given in full) ... false
CC[C@H](C)[C@H](NC(=O)[C@H]1CCCCN1C)C(=O)N(C)[C@H](CCc1nc(C(=O)N[C@@H](Cc2ccccc2)C[C@H](C)C(=O)O)cs1)C(C)C ... true
Cn1cc(-c2cc(-c3cn(C)c4ccccc34)[nH]n2)c2ccccc21 ... false
COC(=O)c1c(C)nc(C)c2c1C(=O)C(Br)=C(NCc1ccccc1)C2=O ... false

Recorded call for Clc1ccc(C=Nc2ccc(-c3nc4ccccc4[nH]3)cc2)cc1 ?
false

# iterate: CCN(CC)CCOC(COc1cc(C)cc(C)c1)COc1cc(C)cc(C)c1
false

Also, O=C(/C=C/c1ccc(O)c(O)c1)N1CCN(c2ccc(Cl)cc2)CC1 please.
false

Now give it for NC(=NCCCCCCN=C(N)/N=C(\N)Nc1ccc(Cl)cc1)/N=C(\N)Nc1ccc(Cl)cc1 too.
false

Okay, and CC1(C)CC(O)CC(C)(C)N1O ?
false

Next up: C=CCC(N[C@@H](CO)c1ccccc1)c1ccc2ccccc2n1 (stereo not given in full)
false

Try O=C(Nc1cccc(-n2ccc3c(NC(=O)c4ccccc4)ncnc32)c1)Nc1ccc(Cl)c(C(F)(F)F)c1 next.
false
